Data credit: the supplement of paper PMC11451515

# System: NOMO1
# measurement notes: cell viability relative to DMSO control; higher = less cytotoxic
# experimental setup: RPMI 5 mM glucose + 10% dialyzed FBS; 48 h; 0.000781 µM
In this section we review reported cell viability values for a set of molecules.
Supply the numeric figure in %, leaving out any unit text.

Worked cases, cell viability given:
# compound string, cell viability, %
rows = [
    ("C#CCN[C@@H]1CCc2ccccc21.CS(=O)(=O)O", 86.1),
    ("C[S+](=O)([O-])c1ccc(Oc2cc(F)cc(C#N)c2)c2c1[C@H](O)C(F)(F)C2", 97.4),
    ("N#C/C(C(=O)c1ccc(Cl)cc1Cl)=C1/NC(=O)c2ccc(Cl)cc2N1", 113),
    ("C=CCc1ccc(O)c(-c2ccc(O)c(CC=C)c2)c1", 114),
]

Please find the next molecule below.
Report cell viability for NC(=O)c1ncn([C@@H]2O[C@H](CO)[C@@H](O)[C@H]2O)c1O tested on NOMO1.
122

----------
# Test system: NOMO1
# measurement notes: cell viability relative to DMSO control; higher = less cytotoxic
# experimental setup: HPLM + 10% dialyzed FBS; 48 h; 46.1 µM
In this section we review reported cell viability values for a set of molecules.
Supply the numeric figure in %, leaving out any unit text.

# molecule, test target, reported measurement
measured = [
    ("N#C/C(C(=O)c1ccc(Cl)cc1Cl)=C1/NC(=O)c2ccc(Cl)cc2N1", "NOMO1", 106),
    ("NC/1=N/C(=O)N(/C=N1)[C@@H]2O[C@H](CO)[C@@H](O)[C@H]2O", "NOMO1", 21.2),
    ("CO/N=C(\\C(=O)N[C@@H]1C(=O)N2C(C(=O)OCOC(=O)C(C)(C)C)=C(/C=C\\c3scnc3C)CS[C@H]12)c1csc(N)n1", "NOMO1", 42.9),
    ("OCCn1cc(-c2cnc3nnn(Cc4ccc5ncccc5c4)c3n2)cn1", "NOMO1", 63.2),
    ("CCN1CCN(C(=O)Cc2ccc(Nc3ncc(F)c(Nc4ccc(C(=O)Nc5ccccc5Cl)cc4)n3)cc2)CC1", "NOMO1", 49.1),
]

Please find the next molecule below.
So what does the record say about cell viability for Cc1ncc([N+](=O)[O-])n1CC(C)O (stereo unspecified) ?
108

----------
# System: P12-Ichikawa
# measurement notes: cell viability relative to DMSO control; higher = less cytotoxic
# experimental setup: RPMI 5 mM glucose + 10% FBS; 48 h; 46.1 µM
In this section we review reported cell viability values for a set of compounds.
Supply the numeric figure in %, leaving out any unit text.

Worked cases, cell viability given:
# compound, uom, cell viability
measured = [
    ("CCN(c1ccccc1)c1cc(NC)[n+](C)c(C)n1", "%", 98.9),
    ("CC(C)(O)/C=C\\C(=O)[C@](C)(O)[C@H]1[C@H](O)C[C@]2(C)[C@@H]3CC=C4[C@@H](C=C(O)C(=O)C4(C)C)[C@]3(C)C(=O)C[C@@]12C", "%", 2.85),
    ("N#C[C@H](O[C@@H]1O[C@H](CO[C@@H]2O[C@H](CO)[C@@H](O)[C@H](O)[C@H]2O)[C@@H](O)[C@H](O)[C@H]1O)c1ccccc1", "%", 48.5),
    ("CC(O)C1C2C(C)\\C(=C(/N2C1=O)C(O)=O)SC3CNC(C3)C(=O)N(C)C (stereo not given)", "%", 85.6),
]

Please find the next compound below.
Report cell viability for COC(=O)N1CC2(CC2)C[C@H](C(=O)NO)[C@H]1C(=O)N1CCN(c2ccccc2)CC1 tested on P12-Ichikawa.
7.58

----------
# System: SEM cells
# measurement notes: cell viability relative to DMSO control; higher = less cytotoxic
# experimental setup: RPMI 5 mM glucose + 10% FBS; 48 h; 5.12 µM
Labelling field: enter Yes if recorded cell viability is less than 50%. Enter No if it equals or exceeds that cut-off.

Examples from the recorded data:
# compound string, answer label
rows = [
    ("CC/1=C(\\O)C(=O)\\C=C2/C1=C/C=C3\\[C@@]2(C)CC[C@@]4(C)[C@@H]5C[C@@](C)(CC[C@]5(C)CC[C@]34C)C(O)=O", "Yes"),
    ("Cc1nc(Nc2n[nH]c3c2CN(C(=O)N[C@H](CN(C)C)c2ccccc2)C3(C)C)c2sccc2n1", "Yes"),
    ("CNC(=O)[C@H](CC/1=C/N=C\\2/C=C\\C\\C=C12)NC(=O)[C@H](CC(C)C)CC(=O)NO", "No"),
]

For COc1ncc(-c2ccc3c(Nc4cc(Oc5cc(F)cc(F)c5)cc(C(=O)O)c4)c([S+](=O)([O-])NC4CC4)cnc3c2)c(OC)n1 , is the recorded cell viability below the cut-off of 50%?
No

Follow-up entry: NC(=O)Nc1cc(-c2cccc(F)c2)sc1C(=O)N[C@H]1CCCNC1
Yes

Follow-up entry: NC/1=N/C(=O)N(/C=N1)[C@@H]2O[C@H](CO)[C@@H](O)[C@H]2O
No

----------
# Test system: P12-Ichikawa
# measurement notes: cell viability relative to DMSO control; higher = less cytotoxic
# experimental setup: HPLM + 10% dialyzed FBS; 48 h; 5.12 µM
In this section we review reported cell viability values for a set of compounds.
Units required after the number.

Worked cases, cell viability given:
# compound, measured endpoint, reported measurement
records = [
    ("Cn1cc(C[C@@H](N)C(=O)O)c2ccccc21", "cell viability", "100%"),
    ("Nc1nc(Cl)nc2c1ncn2[C@@H]1O[C@H](CO)[C@@H](O)[C@@H]1F", "cell viability", "13.5%"),
]

Report cell viability for CCOc1ccc(Cc2cc([C@@H]3O[C@H](CO)[C@@H](O)[C@H](O)[C@H]3O)ccc2Cl)cc1 tested on P12-Ichikawa.
127%

Follow-up entry: C[C@H]1O[C@H](C[C@H](O)[C@@H]1O)O[C@H]2[C@@H](O)C[C@@H](O[C@@H]2C)O[C@H]3[C@@H](O)C[C@@H](O[C@@H]3C)O[C@H]4CC[C@@]5(C)[C@H](CC[C@@H]6[C@@H]5C[C@@H](O)[C@]7(C)[C@H](CC[C@]67O)C/8=C/C(=O)OC8)C4
14.3%

----------
# Tested on: SEM cells
# measurement notes: cell viability relative to DMSO control; higher = less cytotoxic
# experimental setup: HPLM + 10% dialyzed FBS; 48 h; 0.00234 µM
measured endpoint: cell viability
Units required after the number.

# compound, cell viability
records = [
    ("COc1ccc2cc1Oc1ccc(cc1)C[C@H]1c3cc(c(OC)cc3CCN1C)Oc1c(OC)c(OC)cc3c1[C@H](C2)N(C)CC3", "120%"),
    ("NC(=O)c1ncn([C@@H]2O[C@H](CO)[C@@H](O)[C@H]2O)c1O", "118%"),
    ("CCN1CCCC1CNC(=O)c1cc([S+](N)(=O)[O-])ccc1OC (stereo not drawn)", "88.7%"),
    ("OC[C@H]1O[C@@H]2[C@@H](OC\\3=N\\C(=N)\\C=C/[N@@]23)[C@@H]1O", "107%"),
    ("CCNC(=O)Nc1ccc2ncc(Nc3ccc(C)cc3)nc2n1", "120%"),
    ("CN1CCN(CCCN2c3ccccc3Sc3ccc(C(F)(F)F)cc32)CC1", "85.4%"),
]

So what does the record say about cell viability for COc1cc(C(=O)NS(=O)(=O)c2ccccc2C)ccc1Cc1cn(C)c2ccc(NC(=O)OC3CCCC3)cc12 ?
55.9%

Follow-up entry: CC/1=C(\O)C(=O)\C=C2/C1=C/C=C3\[C@@]2(C)CC[C@@]4(C)[C@@H]5C[C@@](C)(CC[C@]5(C)CC[C@]34C)C(O)=O
102%

----------
# Tested on: P12-Ichikawa
# measurement notes: cell viability relative to DMSO control; higher = less cytotoxic
# experimental setup: RPMI 5 mM glucose + 10% dialyzed FBS; 48 h; 0.00234 µM
measured endpoint: cell viability (%)
Supply the numeric figure in %, leaving out any unit text.

Worked cases, cell viability given:
# compound string, reported measurement
data = [
    ("CC(C)OC1=CC=C2C(=C1)O\\C=C(/C2=O)C3=CC=CC=C3", 121),
    ("O.O.CCN1CCN(C(=O)N[C@H](C(=O)N[C@H]2[C@@H]3SC\\C(=C(/N3C2=O)C(O)=O)CSC4=NN=N[N]4C)C5=CC=C(O)C=C5)C(=O)C1=O", 88),
    ("COC(=O)\\C1=C\\CCN(C)C1", 101),
    ("OC[C@H]1O[C@@H](Oc2cc(O)cc(/C=C/c3ccc(O)cc3)c2)[C@H](O)[C@@H](O)[C@@H]1O", 109),
    ("CCN(c1ccccc1)c1cc(NC)[n+](C)c(C)n1", 109),
    ("COc1ccc2cc1Oc1ccc(cc1)C[C@H]1c3cc(c(OC)cc3CCN1C)Oc1c(OC)c(OC)cc3c1[C@H](C2)N(C)CC3", 111),
    ("CNC(=O)[C@H](CC/1=C/N=C\\2/C=C\\C\\C=C12)NC(=O)[C@H](CC(C)C)CC(=O)NO", 107),
]

So what does the record say about cell viability for Cc1cccc(/C=N/Nc2cc(N3CCOCC3)nc(OCCc3ccccn3)n2)c1 ?
89.4
